Assay: physchem
Type: physicochemical
Conditions: solid, 75% rh
Description: The storage stability of the present compounds [I] was tested by allowing each test compound to stand under severe conditions (i.e., a temperature of 60° C. and a relative humidity of 75%) for 8 days and then determining its percentage of residue according to a thin-layer densitometric method (Bunseki Kagaku, Vol. 23, No. 9, p. 1016, 1974). […]
Field 'label' (enum: class 1 / class 0). Set to class 1 when remaining at 192 h is strictly under 90%; else class 0.

Some solved cases for reference:
COc1c(C)cnc(C[S+]([O-])c2nc3nc(OCC(C)C)ccc3[nH]2)c1C (stereo not drawn) [Example 20]    class 1
CCCOc1ccc2[nH]c([S+]([O-])Cc3ncc(C)cc3C)nc2n1 (stereo not drawn) [Example 18]    class 1
Cc1cnc(C[S+]([O-])c2nc3nc(OCC(C)C)ccc3[nH]2)c(C)c1 (stereo not drawn) [Example 19]    class 1
COc1ccc2[nH]c([S+]([O-])Cc3ncc(C)c(OC)c3C)nc2n1 (stereo not drawn) [Example 2]    class 1
Cc1cnc(C[S+]([O-])c2nc3nc(OCC4CC4)ccc3[nH]2)c(C)c1 (stereo not drawn) [Example 23]    class 0

Threshold test, remaining at 192 h < 90%: COc1cc(C[S+]([O-])c2nc3nc(OCC(C)C)ccc3[nH]2)ncc1C (stereo not drawn) [Example 21]
class 1

Now this one: COc1ccc2[nH]c([S+]([O-])Cc3cc(OC)c(C)cn3)nc2n1 (stereo not drawn) [Example 4]
class 0

Now this one: COc1ccnc(C[S+]([O-])c2nc3nc(OC(C)C)ccc3[nH]2)c1 (stereo not drawn) [Example 17]
class 1

Now this one: COc1c(C)cnc(C[S+]([O-])c2nc3ncc(C)cc3[nH]2)c1C (stereo not drawn) [Compound β, reference compound]
class 1

Now this one: COc1c(C)cnc(C[S+]([O-])c2nc3nc(OCC4CC4)ccc3[nH]2)c1C (stereo not drawn) [Example 24]
class 0

Now this one: CCOc1ccc2[nH]c([S+]([O-])Cc3ncc(C)cc3C)nc2n1 (stereo not drawn) [Example 14]
class 0

Now this one: COc1ccnc(C[S+]([O-])c2nc3nc(OCC4CC4)ccc3[nH]2)c1 (stereo not drawn) [Example 25]
class 1
